Target: T1, AahII toxin of Androctonus australis hector (Androctonus australis hector, UniProt P01484 20-83)
T1 construct: mature; also called Aahll
T1 sequence: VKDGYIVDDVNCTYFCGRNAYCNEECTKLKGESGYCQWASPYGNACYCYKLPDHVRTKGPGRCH
Test: SPR (BIAcore), AahII immobilised on CM5 chip, Nb in mobile phase
Kindly supply the reported log10 koff values for the records listed here.
Quick note: numbers are log10 of koff, with s⁻¹ as the unit.

Here are 3 binders together with their reported answers.
INSERT INTO results (binder, metricname, readoutvalue) VALUES
  ('NbAahII05 (VHH, also called cluster G) VHH: QVQLQESGGGSVQAGGSLRLSCAASGYTCTKFNMGWYRQAPGKQREFVASIRRDSTIYYGDSVKGRFTISQDNAKNMVYLQMTSLKPEDSAMYYCSTRCLTSSVPYWGQGTQVTVSS', 'log10 koff', -2.73),
  ('NbAahII38 (VHH, also called cluster H) VHH: DVQLVESGGGLVQPGGSLRLSCAASGFTFSNYVMSWVRQAPGKGLEWVSGINHGGGIQDYADSVKGRFTISRDNAKNTLYLQLNSLKIEDTAMYYCVRASHYRDYGPTIYSWGQGTQVTVSS', 'log10 koff', -3.11),
  ('NbAahII19 (VHH, Purified from E. coli periplasm with His6; also called cluster I) VHH: QVQLQESGGGLVQPGGSLRLSCAASGFSFNIYAMSWVRQAPGKQFEWVSGIHPDGRSTYYTDSVKGRFTISRDNAKNTLYLQLDSLKTEDTAMYYCAKGVLTKYVGSARGQGTQVTVSS', 'log10 koff', -1.89);

Hello, I would appreciate it if you could give log10 koff for each entry below.
1. NbAahII20 (VHH, Purified from E. coli periplasm with His6; also called NbAahIKO (I); cluster I) VHH: QVQLQESGGGLVQPGGSLRLSCTASGFDFSRYVMSWVRQAPGKDFEWISGIMPLSSAGTTYADAVKGRFTISRDNAKNTLYLQLNNLKTEDTAIYYCAKGVYTTYIGGARGQGTQVTVSS
2. NbAahII41 (VHH, also called cluster I) VHH: QVQLVESGGGSVQAGGSLRLSCAASGFDFSIYVMSWVRQAPGKGLEWISGIMPSGQTTYADAVKGRFTISRDNAKNTLYLQLNSLKTEDTAIYYCAKGVYTKYVGGARGQGTQVTVSS
3. NbAahII12 (VHH, Purified from E. coli periplasm with His6; also called cluster I) VHH: QVQLVESGGGLVQPGGSLRLSCAASGFSFNIYAMSWVRQAPGKQFEWVSGIHPNGRSTYYTDSVKGRFTISRDNAKNTLYLQLDSLKTEDTAMYYCAKGVLTKYVGGARGQGTQVTVSS
4. NbAahII36 (VHH, also called cluster C) VHH: QVQLVESGGGSVQAGGSLRLSCAASGYTFSNYRMGWFRQAPGKECELVSTILTDGSTNYADSVKGRFTISRDNAKNTVYLLMNNLKAEDTAVYYCAAGNSRKGYLRRCGGTDFGYWGQGTQVTVSS
5. NbAahII39 (VHH, also called cluster G) VHH: QVQLVESGGGSVQAGGSLRLSCAASGYTCTKFNMGWYRQAPGKERKMVATIRRDGTTYYADSVKGRFTISQDNAKNTVYLQMTSLKPEDSAMYYCSFRCVTPSLPYWGQGTQVTVSS

Ans:
-2.67
-2.00
-2.80
-2.86
-2.98
